Recorded composite z-score values for a group of compounds are listed next.
- procedure.text: small molecules captured by biotinylated probe aFGF10 – biochemical, small-molecule microarray, fluorescence 635/667, stem cell growth factor project, primary screen (AID 1071);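 further: score merges 667 nm spot intensity and signal to noise from triplicate slides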
- stated.conditions: higher = more signal
// keep it numeric: no unit symbol after the value

// below: answered compounds
// sample CCOC(=O)C[C@H]1[C@H](OC(=O)c2ccccc2-c2ccccc2)[C@@H](NC(=O)c2ccc3ccccc3c2)c2cc(OCCCO)ccc2N1C(=O)c1ccccc1 , its composite z-score was 1.03

// sample NC(=O)NCC#Cc1ccc2c(c1)[C@]1(C(=O)N2)[C@H](C(=O)N2CCN(c3ncccn3)CC2)[C@H]2C(=O)O[C@H](c3ccccc3)[C@H](c3ccccc3)N2[C@@H]1c1ccc(O)cc1 , its composite z-score was 0.861

// sample CC(CO)N1C(=O)[C@]2(C)C3C(=O)OCCC/C=C\[C@H]3OC23C=CCN(c2ccc(Cl)cc2)C(=O)[C@@H]13 (some centres undefined) , its composite z-score was 0.0755

// sample COCCOC(=O)N1C(=O)[C@@]2(c3cc(C#CC4=CCCCC4)ccc31)[C@H](c1ccccc1OCCO)N1[C@H](c3ccccc3)[C@H](c3ccccc3)OC(=O)[C@H]1[C@@H]2C(=O)NC[C@H](O)c1ccccc1 , its composite z-score was 0.345

// sample C=CC[C@H](OC(=O)Nc1ccc(SC)cc1)c1ccc(O)c2ccccc12 , its composite z-score was 0.254

Further cases:
// sample COc1ccc(C(=O)Nc2ccc(CN3C(=O)[C@]4(O[C@H](CC(=O)N5Cc6ccccc6C[C@H]5CO)[C@@H]([Si](C)(C)c5ccc(OC)cc5)[C@@H]4C)c4ccccc43)cc2)cc1 , its composite z-score was 0.357

// sample COC(=O)C1=CC(CCCO)=CC(c2cccs2)N(Cc2cccc(OC(F)(F)F)c2)C=C1C(=O)OC (centres undefined) , its composite z-score was 0.583

// sample [N-]=[N+]=Nc1ccccc1C[C@@]1(C(=O)NCCN2CCOCC2)N=C(c2ccc(OCCCO)cc2)O[C@@H]1c1ccccc1N=[N+]=[N-] , its composite z-score was 1.28

// sample COc1cc2c(cc1O)C(C1CC1)N(Cc1cccc(OC(F)(F)F)c1)CC2 (centres undefined) , its composite z-score was 0.248

// sample COC(=O)C1=CC(CCCO)=CC(c2ccc(CN3CCCC3)cc2)N(Cc2cccc(OC(F)(F)F)c2)C=C1C(=O)OC (centres undefined) , its composite z-score was 0.419

// sample CCOC(=O)C[C@H]1[C@H](OC(=O)c2ccccc2-c2ccccc2)[C@@H](NC(=O)c2ccc3ccccc3n2)c2cc(OCCCO)ccc2N1C(=O)Cc1ccc(OC)cc1 , its composite z-score was 0.158

// sample COC(=O)c1c(CC[C@@H](CO)NC(=O)N[C@@H](C)Cn2cc(-c3ccccn3)nn2)oc(C(C)=O)c1C(=O)OC , its composite z-score was 0.384

// sample C=CCN1C(=O)[C@]2(CCS(=O)(=O)c3ccccc3)N=C(c3ccc(OCCCO)cc3)O[C@@H]2c2ccccc21 , its composite z-score was 0.162

// sample O=C(O)[C@@H]1C[C@@H]2C(=O)N3CCC[C@H]3C(=O)N2[C@@H]1c1ccc(O)cc1 , its composite z-score was 0.0314

====

- procedure.text: compound effects on lung adenocarcinoma cell viability – A549, calcein-AM fluorescence, 48 h, basal, profiling panel (AID 1162); further: test concentration not given here
- stated.conditions: higher = more signal
measured.parameter: z-score
// keep it numeric: no unit symbol after the value

// sample NC(=O)NCC#Cc1ccc2c(c1)[C@]1(C(=O)N2)[C@H](c2ccccc2OCCO)N2[C@H](c3ccccc3)[C@H](c3ccccc3)OC(=O)[C@H]2[C@@H]1C(=O)NC[C@H](O)c1ccccc1 , its z-score was 1.2

// sample C=CCC(OC(C)=O)[C@@H]1[C@@H](N(Cc2cccc3ccccc23)C(=O)Cc2ccc(F)cc2)c2cc(OCCCO)ccc2N1C(=O)c1ccc2ccccc2c1 (some centres undefined) , its z-score was 0.937

// sample CCCN1C(=O)[C@@]2(Cc3ccccc31)N=C(c1ccc(OCCCO)cc1)O[C@H]2c1ccccc1 , its z-score was -1.06

// sample COc1cc(NN2C(C(O)c3ccc(N(C)C)cc3)C=CC3C(=O)N(c4ccccc4)C(=O)C32)cc(OC)c1OC (centres undefined) , its z-score was -0.0098

// sample CC(CO)N1C(=O)[C@@H]2[C@H]3C(=O)OCC=C[C@H]3OC23C=CCN(Cn2nnc4ccccc42)C(=O)[C@@H]13 (some centres undefined) , its z-score was -0.671

// sample CC[C@@H]1C=C(C(=O)O)[C@H](c2ccccc2)N1S(=O)(=O)c1ccc(C)cc1 , its z-score was -0.71

// sample C=CCNC(=O)[C@@H]1[C@H]2C(=O)O[C@H](c3ccccc3)[C@H](c3ccccc3)N2[C@H](c2ccc(O)cc2)[C@@]12C(=O)N(C(=O)OCCOC)c1ccc(C#CC3=CCCCC3)cc12 , its z-score was 0.145

// sample CCCCCCc1nc(Cc2cc(OC)c(OC)c(OC)c2)cc2c1[Si](C(C)C)(C(C)C)OC2 , its z-score was -1.79

// sample C=C(/C(=C/C[C@H](OC(C)=O)c1ccc(CO)o1)c1cnc2ccccc2c1)C(C)C , its z-score was -0.166

// sample O=C1O[C@@H](c2ccccc2)[C@@H](c2ccccc2)N2[C@@H](c3ccc(O)cc3)[C@]3(C(=O)Nc4ccc(C#CCCO)cc43)[C@@H](C(=O)N3CCN(c4ncccn4)CC3)[C@H]12 , its z-score was -0.716

// sample COCC(=C=CC[C@H](O)c1ccc(CO)o1)CCO , its z-score was 0.0135
